What half-life at 50 µg/mL was measured for each of the following?
Assay name: In vitro peptide stability in human serum (RP-HPLC)
Experimental setup: human, human serum, 25% (v/v) in RPMI
Square brackets hold non-standard residues; d marks the D form. Peptide text beside a SMILES is read from it.
One number for each entry, in h.

Use these answered entries as a reference point.
Compound: CC(C)C[C@H](NC(=O)[C@@H](N)Cc1ccc(O)cc1)C(=O)N1CCC[C@H]1C(=O)N[C@H](CCC(N)=O)C(=O)N[C@@H](CCC(N)=O)C(=O)N[C@@H](Cc1ccc(O)cc1)C(=O)N[C@@H](C)C(=O)N[C@@H](Cc1ccccc1)C(=O)N[C@H](Cc1ccccc1)C(=O)O [YLPqQYAFf] (H-YLP[dQ]QYAF[dF]-OH; N-terminus assumed)
Measured result: 1.45
//
Compound: CC(C)C[C@H](NC(=O)[C@H](N)Cc1ccc(O)cc1)C(=O)N1CCC[C@@H]1C(=O)NCC(=O)N[C@@H](CCC(N)=O)C(=O)N[C@@H](Cc1ccc(O)cc1)C(=O)N[C@@H](C)C(=O)N[C@@H](Cc1ccccc1)C(=O)N[C@@H](CO)C(=O)O [compound 104] (H-[dY]L[dP]GQYAFS-OH; N-terminus assumed)
Measured result: 1.33
//
Compound: CC(C)[C@H](NC(=O)[C@H](N)Cc1ccc(O)cc1)C(=O)N1CCC[C@H]1C(=O)NCC(=O)N[C@@H](CCC(N)=O)C(=O)N[C@@H](Cc1ccc(O)cc1)C(=O)N[C@@H](C)C(=O)N[C@@H](Cc1ccccc1)C(=O)N[C@@H](CO)C(=O)O [compound 91] (H-[dY]VPGQYAFS-OH; N-terminus assumed)
Measured result: 2.52
//
Compound: CC(C)C[C@@H](NC(=O)[C@H](Cc1c[nH]cn1)NC(=O)[C@@H](N)CO)C(=O)NCC(=O)N[C@@H](CCC(N)=O)C(=O)N[C@@H](Cc1ccccc1)C(=O)N[C@H](Cc1c[nH]c2ccccc12)C(=O)N[C@@H](Cc1ccccc1)C(=O)N[C@H](CO)C(=O)O [compound 139] (H-SH[dL]GQF[dW]F[dS]-OH; N-terminus assumed)
Measured result: 0.933
//
Compound: C[C@H](NC(=O)[C@H](Cc1ccccc1)NC(=O)[C@H](C)NC(=O)[C@@H](N)Cc1ccccc1)C(=O)N[C@@H](Cc1ccccc1)C(=O)N[C@H](CO)C(=O)N[C@@H](Cc1ccccc1)C(=O)N[C@@H](C)C(=O)N[C@@H](Cc1ccc(O)cc1)C(=O)O [compound 117] (H-FAFAF[dS]FAY-OH; N-terminus assumed)
Measured result: 0.433

Please look at the following compound next.
Task: Any idea what half-life at 50 µg/mL was measured for NC(=O)CC[C@H](NC(=O)CNC(=O)[C@@H]1CCCN1C(=O)[C@@H](Cc1ccc(O)cc1)NC(=O)[C@H](Cc1ccc(O)cc1)NC(=O)[C@H](CCC(N)=O)NC(=O)[C@H](N)Cc1ccccc1)C(=O)N[C@@H](Cc1ccc(O)cc1)C(=O)N[C@@H](Cc1ccc(O)cc1)C(=O)O [compound 137] (H-[dF]QY[dY]PGQYY-OH; N-terminus assumed) ?
Output: 1.8
